# Test Protocol: NCI Yeast Anticancer Drug Screen. Data for the rad18 strain (AID 177)
# Condition Context: S. cerevisiae rad18 mutant growth inhibition; at 33.0 µM; hits give high values
About 79,000 compounds went through this panel and 15% of them were active in at least one assay; those are over-represented in the sample as a whole.
Give Y when the value for growth inhibition is at least 40%. Give N when it is less.

>>> label("CC(=O)SC(C[N+](=O)[O-])c1ccccc1 (stereo unspecified)")
"Y"
>>> label("COc1cccc2c1C(=O)c1c(O)c3c(c(O)c1C2=O)C[C@@](O)(C(C)=O)C[C@@H]3OC1CC(OC(C)=O)C(OC(C)=O)C(C)O1 (stereo partly specified)")
"N"
>>> label("CNC(=O)OCc1c(COC(=O)NC)c(-c2ccc(Cl)cc2)n2c1CCC2")
"N"
>>> label("CCCCCCCCCCCC(O)S(=O)(=O)O (stereo unspecified)")
"N"
>>> label("Cn1c(-c2ccc(/C=N\\N3CCN(/N=C/c4ccc(-c5c[n+]6ccccc6n5C)cc4)CC3)cc2)c[n+]2ccccc12")
"Y"
>>> label("CC(=O)OCC1OC2OC(=O)NC2C(OC(C)=O)C1OC(C)=O (stereo unspecified)")
"N"
>>> label("CCN(CC)CCOc1cc(C)c2cc(Cc3ccccc3)ccc2n1")
"Y"
>>> label("CSc1nc(C)c(CCOC(C)=O)c(N=P(c2ccccc2)(c2ccccc2)c2ccccc2)n1")
"N"
>>> label("c1ccc2cc(NCNc3ccc4ccccc4c3)ccc2c1")
"N"
>>> label("Oc1ccc2ccccc2c1CCc1c(O)ccc2ccccc12")
"Y"
>>> label("Cc1cc(-c2cc(C)c(O)c(C(C)(C)C)c2)cc(C(C)(C)C)c1O")
"N"
>>> label("CC(=O)OC1CCC2(C)C(=CC(C3C=C4CC(OC(C)=O)CCC4(C)C4=C3C3CC5OC6(CCC(C)CO6)C(C)C5C3(C)CC4)C3=C2CCC2(C)C3CC3OC4(CCC(C)CO4)C(C)C32)C1 (stereo unspecified)")
"N"
>>> label("CCc1cc(O)c(Cl)c(C)c1Cl")
"N"
>>> label("O=C(O)CNC(=S)Nc1ccccc1")
"Y"
>>> label("O=C1Nc2ccccc2/C1=C/c1ccccc1")
"Y"
>>> label("CC(C)c1ccc(NC(=S)NC(=O)c2ccccc2)cc1")
"N"
>>> label("O=C1c2cccnc2C(=O)C2C3C=CC(C3)C12 (stereo unspecified)")
"Y"
>>> label("CC(=O)OC1CC2C(C)(C)C(=O)C=C[C@]2(C)C2CCC3(C)C(=CCC3[C@H](CO)C[C@H](O)C(=O)C(C)(C)O)[C@]12C (stereo partly specified)")
"N"
>>> label("O=C1C(Br)=C(c2ccccc2)O/C1=C/C(=O)c1ccc(Br)cc1")
"N"
>>> label("Cc1ccc(CC2(OCCN(C)C)CCC(C(C)(C)C)CC2)cc1 (stereo unspecified)")
"N"
>>> label("CCOC1(c2cccc([N+](=O)[O-])c2)c2ccccc2Oc2ccccc21")
"N"
